// data source = patent US10138212B2

Provide the reported A2a selectivity (A2a A1 binding selectivity) of each item.
Assayed Target: human A1 receptor (Homo sapiens (Human))
Sequence (P30542 whole entry): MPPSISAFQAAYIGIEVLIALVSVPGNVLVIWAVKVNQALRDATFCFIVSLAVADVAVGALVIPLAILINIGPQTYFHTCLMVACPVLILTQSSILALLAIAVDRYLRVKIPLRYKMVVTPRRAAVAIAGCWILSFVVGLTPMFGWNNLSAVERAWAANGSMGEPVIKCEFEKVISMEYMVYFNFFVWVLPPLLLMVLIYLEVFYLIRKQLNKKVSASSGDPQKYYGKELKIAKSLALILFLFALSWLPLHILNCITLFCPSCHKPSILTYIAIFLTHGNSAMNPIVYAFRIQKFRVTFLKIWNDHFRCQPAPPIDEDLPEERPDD
Measurement Description: A1 competition binding assay using Scintillation Proximity technology; selectivity = A1 binding Ki / A2a binding Ki
Condition Context: A1 binding Ki divided by A2a binding Ki
Keep the answer to the number alone.

A2a selectivity (A2a A1 binding selectivity) reading for Nc1nc(C(=O)NCC2CC3CCC2C3)c2cccc(F)c2n1 (stereo not shown) [Example 87] : 3

A2a selectivity (A2a A1 binding selectivity) reading for Nc1nc(C(=O)NCc2cccc(C(F)F)n2)c2cccc(F)c2n1 [Example 71] : 60

A2a selectivity (A2a A1 binding selectivity) reading for COc1cccc2c(C(=O)NCc3cccc(CO)n3)nc(N)nc12 [Example 14] : 273

A2a selectivity (A2a A1 binding selectivity) reading for COc1cccc2c(C(=O)N[C@@H](CO)c3ccc4ccccc4n3)nc(N)nc12 [Example 37] : 32

A2a selectivity (A2a A1 binding selectivity) reading for CC1(O)CCN(c2cccc(CNC(=O)c3nc(N)nc4c(F)cccc34)n2)CC1 [Example 79] : 14

A2a selectivity (A2a A1 binding selectivity) reading for COc1cccc2c(C(=O)NC(C)(C)c3ccccn3)nc(N)nc12 [Example 39] : 9

A2a selectivity (A2a A1 binding selectivity) reading for Cc1ccc(CNC(=O)c2nc(N)nc3c(F)cccc23)nc1 [Example 72] : 30

A2a selectivity (A2a A1 binding selectivity) reading for Cc1csc(-c2cccc(CNC(=O)c3nc(N)nc4c(F)cccc34)n2)n1 [Example 69] : 63

A2a selectivity (A2a A1 binding selectivity) reading for COc1ccc(C)c(CNC(=O)c2nc(N)nc3c(F)cccc23)n1 [Example 77] : 62

A2a selectivity (A2a A1 binding selectivity) reading for Nc1nc(C(=O)NCc2cccc(COc3ccccn3)n2)c2cccc(F)c2n1 [Example 46] : 484

A2a selectivity (A2a A1 binding selectivity) reading for COc1cccc2c(C(=O)NCc3cccc(CSc4nc5ccccc5[nH]4)n3)nc(N)nc12 [Example 56] : 111

A2a selectivity (A2a A1 binding selectivity) reading for COc1cccc2c(C(=O)NCc3ncc(F)cc3F)nc(N)nc12 [Example 29] : 118

A2a selectivity (A2a A1 binding selectivity) reading for COc1cccc2c(C(=O)NCc3nc(C)ccc3F)nc(N)nc12 [Example 20] : 89

A2a selectivity (A2a A1 binding selectivity) reading for Nc1nc(C(=O)NCc2cccc(-c3ccccn3)n2)c2cccc(F)c2n1 [Example 63] : 59

A2a selectivity (A2a A1 binding selectivity) reading for COc1cccc2c(C(=O)NC3CCc4ccccc4C3)nc(N)nc12 (stereo not shown) [Example 34] : 46

A2a selectivity (A2a A1 binding selectivity) reading for C[C@@H](NC(=O)c1nc(N)nc2c(F)cccc12)c1cccc2cccnc12 [Example 88] : 8

A2a selectivity (A2a A1 binding selectivity) reading for COc1cccc2c(C(=O)NC3CCc4cccnc43)nc(N)nc12 (stereo not shown) [Example 32] : 370

A2a selectivity (A2a A1 binding selectivity) reading for COc1cccc2c(C(=O)NCc3cccc(CO[C@H]4CCOC4)n3)nc(N)nc12 [Example 52] : 140

A2a selectivity (A2a A1 binding selectivity) reading for COc1cccc2c(C(=O)NCc3cccc(C(C)(O)C(F)(F)F)n3)nc(N)nc12 (stereo not shown) [Example 3] : 600
